test: qHTS assay to test for compound auto fluorescence at 535 nm (green) in HEK293 cell free culture (AID 720682); conditions: cell-free medium, green autofluorescence 485/535 nm; series mostly up to 91.3 µM
Calls of active or inactive are those of the source. Calls follow the shape of the dose curve; as a rule, active = well fitted curve in the direction sought with a large enough effect in the repeat runs; inconclusive = weak or mixed curves; inactive = flat fitted curve, though single readings scatter. Residues, ends and D or L forms follow the SMILES beside them.
Readout Type: outcome

Here are 5 molecules together with their reported answers.
>  <Molecule>
Nc1ccc(C(=O)O)cc1

>  <Readout Type>
outcome

>  <Result>
inactive

$$$$
>  <Molecule>
O=C(O)C(=O)O

>  <Readout Type>
outcome

>  <Result>
inactive

$$$$
>  <Molecule>
O=c1cc[nH]c(=S)[nH]1

>  <Readout Type>
outcome

>  <Result>
inactive

$$$$
>  <Molecule>
Cc1cn([C@H]2C[C@H](N=[N+]=[N-])[C@@H](CO)O2)c(=O)[nH]c1=O

>  <Readout Type>
outcome

>  <Result>
inactive

$$$$
>  <Molecule>
c1ccc2[nH]ccc2c1

>  <Readout Type>
outcome

>  <Result>
inactive

$$$$

Please state, for each entry, its recorded outcome.
1. COC(=O)[C@H](Cc1ccccc1)NC(=O)[C@@H](N)CC(=O)O (H-Asp-Phe-OMe)
2. Cc1noc(NS(=O)(=O)c2ccc(N)cc2)c1C

Reply:
1. inactive
2. inactive

Please state, for each entry, its recorded outcome.
1. CCC1(c2ccccc2)C(=O)NCNC1=O
2. C[C@]12C=CC(=O)C=C1CC[C@@H]1[C@@H]2[C@@H](O)C[C@@]2(C)[C@H]1CC[C@]2(O)C(=O)CO
3. NC(=O)NC1NC(=O)NC1=O (stereo not drawn)
4. Nc1ccn([C@H]2CC[C@@H](CO)O2)c(=O)n1
5. O=C(O)c1[nH]n(-c2ccc(S(=O)(=O)O)cc2)c(=O)c1N=Nc1ccc(S(=O)(=O)O)cc1
6. CC(O)CN(CCN(CC(C)O)CC(C)O)CC(C)O (stereo not drawn)
7. CNC[C@H](O)c1cccc(O)c1

Reply:
1. inactive
2. inactive
3. inactive
4. inactive
5. inactive
6. inactive
7. inactive

Please state, for each entry, its recorded outcome.
1. CCCNC(=O)NS(=O)(=O)c1ccc(Cl)cc1
2. CC(=O)NS(=O)(=O)c1ccc(N)cc1
3. CCCCC1C(=O)N(c2ccccc2)N(c2ccccc2)C1=O

Reply:
["inactive", "inactive", "inactive"]

Please state, for each entry, its recorded outcome.
1. Cn1c(=O)c2[nH]cnc2n(C)c1=O
2. C/C=C/c1ccc(OC)cc1
3. CCCCCCCCCCCCCCCC(=O)O
4. CC(=O)Nc1nnc(S(N)(=O)=O)s1
5. O=C1NC(=O)c2ccccc21
6. O=S(=O)(O)c1ccc2cc(O)ccc2c1

Reply:
1: inactive; 2: inactive; 3: inactive; 4: inactive; 5: inactive; 6: inactive

###

experiment: qHTS RealTime-Glo MT Cell Viability Assay in HepG2 cells - 16 hour (AID 1224885); settings: RealTime-Glo luminescence; series mostly up to 76.8 µM; also: nearly all actives have a fitted effect of over 50% in size
Records with an inconclusive call do not appear. Active and inactive are the calls of the source. The call rests on the fitted dose curve; in most records, active means well fitted cell-killing curve with a large enough effect in the repeat runs; inconclusive means weak or mixed curves; inactive means flat fitted curve, though single readings scatter.
Readout Type: outcome

>  <Molecule>
O=C(c1ccccc1)c1ccccc1

>  <outcome>
inactive

$$$$
>  <Molecule>
CC(C)(Oc1ccc(C2CC2(Cl)Cl)cc1)C(=O)O (stereo not drawn)

>  <outcome>
inactive

$$$$
>  <Molecule>
O=S(=O)(O)NC1CCCCC1

>  <outcome>
inactive

$$$$
>  <Molecule>
CC(=O)OCC(COC(C)=O)OC(C)=O

>  <outcome>
inactive

$$$$
>  <Molecule>
O=c1ccc2ccccc2o1

>  <outcome>
inactive

$$$$
>  <Molecule>
O=C(O)/C=C\C(=O)O

>  <outcome>
inactive

$$$$

Please state, for each entry, its recorded outcome.
1. Cc1ccccc1C(OCCN(C)C)c1ccccc1 (stereo not drawn)
2. C/C=C/c1ccc(OC)cc1

Reply:
inactive
inactive

###

assay: qHTS assay to identify small molecule agonists of the NFkB signaling pathway (AID 1159509); conditions: NFkB-bla ME-180 cells, beta-lactamase FRET ratio, 5 h; series mostly up to 61 µM
Records with an inconclusive call do not appear. Calls of active or inactive are those of the source. Calls come from the whole dose curve; as a rule, active = well fitted curve in the direction sought with a large enough effect in the signal ratio in the repeat runs (not every such curve was filed as active); inconclusive = weak or mixed curves, or a change in a side signal; inactive = no such curve, though single readings can be large or run the other way; the % refers to the signal ratio.
Readout Type: outcome

Here are 5 molecules together with their reported answers.
>  <Molecule>
CC(C)[C@@H]1CC[C@@H](C)C[C@H]1O

>  <outcome>
inactive

$$$$
>  <Molecule>
O=NO

>  <outcome>
inactive

$$$$
>  <Molecule>
O=C(O)/C=C\C(=O)O

>  <outcome>
inactive

$$$$
>  <Molecule>
NC(N)=NC(=O)c1nc(Cl)c(N)nc1N

>  <outcome>
inactive

$$$$
>  <Molecule>
CCC1(c2ccccc2)C(=O)NCNC1=O

>  <outcome>
inactive

$$$$

Please state, for each entry, its recorded outcome.
1. CCCC(CCC)C(=O)O
2. O=C(O)CCCCCCCC(=O)O
3. O=C(O)c1[nH]n(-c2ccc(S(=O)(=O)O)cc2)c(=O)c1N=Nc1ccc(S(=O)(=O)O)cc1

Reply:
inactive
inactive
inactive

###

Target: Bile acid receptor (Homo sapiens) (UniProt Q96RI1)
Sequence (Q96RI1 whole entry, looked up): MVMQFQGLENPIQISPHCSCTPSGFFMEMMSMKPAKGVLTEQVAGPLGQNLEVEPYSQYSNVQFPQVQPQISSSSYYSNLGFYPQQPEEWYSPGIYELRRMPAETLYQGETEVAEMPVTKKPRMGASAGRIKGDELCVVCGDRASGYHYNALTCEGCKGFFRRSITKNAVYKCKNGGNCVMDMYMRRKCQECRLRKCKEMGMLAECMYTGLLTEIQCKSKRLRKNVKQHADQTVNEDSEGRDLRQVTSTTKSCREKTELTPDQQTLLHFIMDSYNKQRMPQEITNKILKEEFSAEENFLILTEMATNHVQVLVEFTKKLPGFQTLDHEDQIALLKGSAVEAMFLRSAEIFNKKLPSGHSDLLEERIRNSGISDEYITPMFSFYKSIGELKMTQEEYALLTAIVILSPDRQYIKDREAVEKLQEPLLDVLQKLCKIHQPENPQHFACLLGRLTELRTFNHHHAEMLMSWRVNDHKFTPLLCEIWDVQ
Test: qHTS assay to identify small molecule antagonists of the farnesoid-X-receptor (FXR) signaling pathway (AID 743217)
Details: HEK293T FXR-UAS-bla, beta-lactamase ratio, CDCA-stimulated, 16 h; series mostly up to 62.6 µM
Source text: U.S. Tox21 Program National Center for Advancing Translational Sciences [NCATS] NIH Chemical Genomics Center [NCGC] U.S. Environmental Protection Agency [EPA] National Institutes of Environmental Health Sciences [NIEHS] National Toxicology Program [NTP] U.S. Food and Drug Administration [FDA] Tox21 Assay Overview: The farnesoid-X-receptor (FXR), a nuclear hormone receptor, is highly expressed in liver, intestine, kidney and adrenal cortex. […]
Results filed as inconclusive are left out. The source made the active and inactive calls. Calls follow the shape of the dose curve; as a rule, active = well fitted inhibition curve with a large enough effect in the signal ratio in the repeat runs (not every such curve was filed as active); inconclusive = weak or mixed curves, or effect the other way; inactive = no such curve, though single readings can be large or run the other way; the % refers to the signal ratio.
Hi there, use one of these labels in your reply, thanks! active, inactive

>  <Compound>
C1N2CN3CN1CN(C2)C3

>  <Qualitative Label>
inactive

$$$$
>  <Compound>
Oc1ccc(/C=C/c2cc(O)cc(O)c2)cc1

>  <Qualitative Label>
active

$$$$
>  <Compound>
CC(O)C(=O)O (stereo not drawn)

>  <Qualitative Label>
inactive

$$$$
>  <Compound>
O=C1NC(=O)c2ccccc21

>  <Qualitative Label>
inactive

$$$$
>  <Compound>
Cc1ccc(C)c(OCCCC(C)(C)C(=O)O)c1

>  <Qualitative Label>
inactive

$$$$

Task item: GET /call?item= CCOc1ccc(NC(=O)CC(C)O)cc1 (stereo not drawn) returns the recorded outcome of this test.
Reply: inactive

Task item: GET /call?item= Cc1cc(=O)[nH]c(=S)[nH]1 returns the recorded outcome of this test.
Reply: inactive

###

Target: Androgen receptor (Homo sapiens) (UniProt P10275)
Sequence (P10275 whole entry, looked up): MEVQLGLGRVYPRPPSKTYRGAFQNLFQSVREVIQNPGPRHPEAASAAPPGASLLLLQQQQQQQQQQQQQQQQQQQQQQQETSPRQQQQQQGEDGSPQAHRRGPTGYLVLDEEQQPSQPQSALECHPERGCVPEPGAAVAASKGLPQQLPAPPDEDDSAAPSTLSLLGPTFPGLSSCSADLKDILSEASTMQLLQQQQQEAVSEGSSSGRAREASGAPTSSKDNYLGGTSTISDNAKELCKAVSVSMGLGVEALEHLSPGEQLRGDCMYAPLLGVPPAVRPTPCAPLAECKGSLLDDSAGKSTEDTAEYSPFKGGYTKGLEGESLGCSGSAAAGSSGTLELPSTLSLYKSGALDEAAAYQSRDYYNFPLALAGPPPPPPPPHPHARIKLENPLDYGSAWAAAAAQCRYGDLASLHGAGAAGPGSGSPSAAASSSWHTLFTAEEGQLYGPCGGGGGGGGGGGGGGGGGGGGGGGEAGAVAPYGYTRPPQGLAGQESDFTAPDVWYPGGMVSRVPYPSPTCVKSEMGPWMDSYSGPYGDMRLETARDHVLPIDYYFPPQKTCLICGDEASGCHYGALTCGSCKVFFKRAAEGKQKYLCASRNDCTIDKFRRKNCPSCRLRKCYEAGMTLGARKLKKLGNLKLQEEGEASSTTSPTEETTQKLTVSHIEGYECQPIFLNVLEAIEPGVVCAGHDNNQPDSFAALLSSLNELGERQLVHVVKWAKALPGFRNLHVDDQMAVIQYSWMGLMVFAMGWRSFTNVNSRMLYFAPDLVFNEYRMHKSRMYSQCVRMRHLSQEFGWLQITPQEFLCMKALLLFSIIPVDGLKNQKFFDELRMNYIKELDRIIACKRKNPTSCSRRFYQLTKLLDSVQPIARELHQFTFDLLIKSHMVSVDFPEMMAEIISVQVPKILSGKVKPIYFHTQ
Assay: qHTS assay to identify small molecule agonists of the androgen receptor (AR) signaling pathway in the presence of an antagonist (AID 1259381); also: nearly all actives have a fitted effect of over 15% in size
Details: MDA-kb2 MMTV-luciferase, AR agonist + nilutamide, 16 h; series mostly up to 92.4 µM
Source text: National Center for Advancing Translational Sciences [NCATS] NIH Chemical Genomics Center [NCGC] U.S. Environmental Protection Agency [EPA] National Institutes of Environmental Health Sciences [NIEHS] National Toxicology Program [NTP] Assay overview: Androgen receptor (AR) is an important member of nuclear receptor family. Its signaling plays a critical role in AR-dependent prostate cancer and other androgen related diseases. […]
The source made the active and inactive calls. Calls come from the whole dose curve.
Hi there, use one of these labels in your reply, thanks! active, inactive

Consider the worked cases shown below.
>  <Record Smiles>
Oc1ccc(/C=C/c2cc(O)cc(O)c2)cc1

>  <Qualitative Label>
active

$$$$
>  <Record Smiles>
CC(C)[C@@H]1CC[C@@H](C)C[C@H]1O

>  <Qualitative Label>
inactive

$$$$

Task item: GET /call?item= Cc1ccc(C)c(OCCCC(C)(C)C(=O)O)c1 returns the recorded outcome of this test.
Reply: inactive

Task item: GET /call?item= CCCN(CCC)S(=O)(=O)c1ccc(C(=O)O)cc1 returns the recorded outcome of this test.
Reply: inactive

Task item: GET /call?item= C1N2CN3CN1CN(C2)C3 returns the recorded outcome of this test.
Reply: inactive

###

assay: qHTS RealTime-Glo MT Cell Viability Assay in HEK293 cells - 16 hour (AID 1224872); details: RealTime-Glo luminescence; series mostly up to 76.8 µM; also: top concentration of the series differs between compounds; nearly all actives have a fitted effect of over 50% in size
Results filed as inconclusive are left out. Activity calls are given as the source filed them. Calls follow the shape of the dose curve; as a rule, active = well fitted cell-killing curve with a large enough effect in the repeat runs; inconclusive = weak or mixed curves, or effect the other way; inactive = flat fitted curve, though single readings scatter.
Readout Type: outcome

>  <Molecule>
CC1(C)[C@@H]2CC[C@@]1(C)C(=O)C2

>  <outcome>
inactive

$$$$
>  <Molecule>
CNC[C@H](O)c1cccc(O)c1

>  <outcome>
inactive

$$$$
>  <Molecule>
CC(C)(Oc1ccc(C2CC2(Cl)Cl)cc1)C(=O)O (centres undefined)

>  <outcome>
inactive

$$$$
>  <Molecule>
Cc1cc(=O)n(-c2ccccc2)n1C

>  <outcome>
inactive

$$$$
>  <Molecule>
CCCC(CCC)C(=O)O

>  <outcome>
inactive

$$$$
>  <Molecule>
Oc1ccc(/C=C/c2cc(O)cc(O)c2)cc1

>  <outcome>
inactive

$$$$

Please state, for each entry, its recorded outcome.
1. Nc1ccc(C(=O)O)cc1
2. Nc1ccn([C@H]2CC[C@@H](CO)O2)c(=O)n1
3. Cn1c(=O)c2[nH]cnc2n(C)c1=O
4. O=C(O)/C=C\C(=O)O
5. O=C(c1ccccc1)c1ccccc1
6. Cc1ccc(C)c(OCCCC(C)(C)C(=O)O)c1
7. Cn1cc[nH]c1=S

Reply:
inactive
inactive
inactive
inactive
inactive
inactive
inactive

Please state, for each entry, its recorded outcome.
1. Cc1ccc(S(=O)(=O)NC(=O)NN2CCCCCC2)cc1
2. CCCCCCCCCCCCCCCC(=O)O
3. O=C(O)c1[nH]n(-c2ccc(S(=O)(=O)O)cc2)c(=O)c1N=Nc1ccc(S(=O)(=O)O)cc1
4. Cc1ccccc1C(OCCN(C)C)c1ccccc1 (centres undefined)
5. O=C1NC(=O)c2ccccc21

Reply:
["inactive", "inactive", "inactive", "inactive", "inactive"]

Please state, for each entry, its recorded outcome.
1. CC(=O)OCC(COC(C)=O)OC(C)=O
2. CC(O)CO (centres undefined)
3. O=C(O)CCCCCCCC(=O)O
4. O=C(O)c1cccc([N+](=O)[O-])c1

Reply:
1. inactive
2. inactive
3. inactive
4. inactive

Please state, for each entry, its recorded outcome.
1. Cc1noc(NS(=O)(=O)c2ccc(N)cc2)c1C
2. CCCCC(CC)COC(=O)/C=C/c1ccc(OC)cc1 (centres undefined)
3. O=NO

Reply:
1: inactive; 2: inactive; 3: inactive
